All values here come from patent US20140348836A1.

test-target: T1, human CD40 on cells (human, UniProt P25942 21-277)
T1 construct: whole, on cells; One molecule is used for native or transfected full-length human CD40 on all the cell types tested; also called CD40 on RAMOS cells; CD40 receptor on dendritic cells
T1 sequence (P25942 21-277): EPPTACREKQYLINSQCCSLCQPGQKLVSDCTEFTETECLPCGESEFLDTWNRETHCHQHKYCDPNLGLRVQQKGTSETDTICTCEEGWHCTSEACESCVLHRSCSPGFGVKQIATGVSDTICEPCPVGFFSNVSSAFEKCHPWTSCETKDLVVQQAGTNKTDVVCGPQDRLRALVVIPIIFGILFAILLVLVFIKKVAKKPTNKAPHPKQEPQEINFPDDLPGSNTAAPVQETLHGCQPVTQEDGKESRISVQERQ
assay-info: flow cytometry (FACS) on RAMOS cells, anti-human Ig F(ab')2-FITC detection, MFI
readout-label: EC50 (ng/mL)

binder="Antibody B44 (antibody, V domains shown, Parent agonistic anti-CD40 antibody from the n-CoDeR library; Run alongside the IgG clones as 'B44 antibody' and detected with anti-human Ig on RAMOS cells; also called B44 antibody; original anti-CD40 antibody) VH: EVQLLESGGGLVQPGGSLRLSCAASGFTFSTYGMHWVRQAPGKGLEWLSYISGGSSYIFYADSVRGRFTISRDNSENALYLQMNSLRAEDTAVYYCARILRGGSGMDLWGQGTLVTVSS VL: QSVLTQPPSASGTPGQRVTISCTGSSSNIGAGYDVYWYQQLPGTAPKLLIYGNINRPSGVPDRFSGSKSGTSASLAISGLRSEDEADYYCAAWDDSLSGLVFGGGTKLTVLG" unit_tag=ng/mL readout_number=380
binder="Antibody clone C4 (antibody, human IgG1, lambda, V domains shown, Same VL changes as A4; VH carries S63T; also called C4 ANTI-CD40 ANTIBODY) VH: EVQLLESGGGLVQPGGSLRLSCAASGFTFSTYGMHWVRQAPGKGLEWLSYISGGSSYIFYADTVRGRFTISRDNSENALYLQMNSLRAEDTAVYYCARILRGGSGMDLWGQGTLVTVSS VL: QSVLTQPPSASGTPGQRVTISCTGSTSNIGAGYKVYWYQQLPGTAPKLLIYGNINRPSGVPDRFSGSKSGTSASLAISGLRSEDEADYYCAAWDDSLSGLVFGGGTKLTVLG" unit_tag=ng/mL readout_number=6.1
binder="Antibody clone A5 (antibody, human IgG1, lambda, V domains shown) VH: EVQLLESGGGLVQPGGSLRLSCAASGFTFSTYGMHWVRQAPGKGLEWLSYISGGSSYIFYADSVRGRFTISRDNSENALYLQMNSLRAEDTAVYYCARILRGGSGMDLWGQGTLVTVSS VL: QSVLTQPPSASGTPGQRVTISCTGSSSNIGAGYHVYWYQQLPGTAPKLLIYGSINRPSGVPDRFSGSKSGTSGSLAISGLRSEDEADYYCAAWDSSSSGLVFGGGTKLTVLG" unit_tag=ng/mL readout_number=6.2
binder="Antibody clone B9 (antibody, human IgG1, lambda, V domains shown) VH: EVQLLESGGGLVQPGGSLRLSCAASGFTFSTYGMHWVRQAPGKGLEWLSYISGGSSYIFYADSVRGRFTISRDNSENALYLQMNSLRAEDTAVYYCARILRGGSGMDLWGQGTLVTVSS VL: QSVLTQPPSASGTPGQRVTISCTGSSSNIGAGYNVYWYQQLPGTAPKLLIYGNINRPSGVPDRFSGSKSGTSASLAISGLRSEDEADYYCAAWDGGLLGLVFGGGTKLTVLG" unit_tag=ng/mL readout_number=4.9
binder="Antibody clone F6 (antibody, human IgG1, lambda, V domains shown) VH: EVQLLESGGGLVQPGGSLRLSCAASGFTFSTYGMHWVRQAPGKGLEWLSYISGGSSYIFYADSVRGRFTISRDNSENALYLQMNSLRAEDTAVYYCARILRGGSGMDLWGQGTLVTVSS VL: QSVLTQPPSASGTPGQRVTISCTGSSSNIGAGYDVYWYQQLPGTAPKLLIYRNINRPSGVPDRFSGSKSGTSASLAISGLRSEDEADYYCAAWDGSLLGLVFGGGTKLTVLG" unit_tag=ng/mL readout_number=5.8
